# method_description: MM1S myeloma cell viability, profiling panel, resazurin fluorescence, basal, 24 h, PK04 Diversity Set (AID 1174);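 further: MM1S multiple myeloma cell line; test concentration not given here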
# recorded_conditions: higher = more signal, called active from +8 up or from −8 down
# key: entry, value: z-score
Number only, no unit.

Below, each entry is followed by its recorded z-score result.
compound=CO[C@H]1O[C@H](CO)[C@@H](OC(=O)CCc2ccccc2)[C@@H]2OC(=O)[C@H](Cc3cccc(Br)c3)C/C=C/C[C@@H](Cc3cccc(Br)c3)C(=O)O[C@@H]12 endpoint_result=1.5
compound=CCCC[C@@H]1C[C@H]1[C@@H](NC(=O)c1cccs1)c1ccc(Cl)cc1 endpoint_result=-0.0593
compound=CC(C)(C)OC(=O)CC[C@@]1(C(=O)NCc2ccccc2)N=C(c2ccc(OCCCO)cc2)O[C@@H]1c1ccccc1 endpoint_result=-1.49
compound=CC(C)NC(=O)[C@@]1(Cc2ccccc2I)c2ccccc2C(=O)N(C2CCCCC2)[C@H]1c1ccc(CO)cc1 endpoint_result=0.224
compound=CO[C@H]1COC(=O)CC=C[C@H](C)COC(=O)[C@@H](OCc2ccccc2)C=C[C@@H]1C endpoint_result=1.46
compound=COC(=O)[C@@]1(Cc2ccccc2CN=[N+]=[N-])N=C(c2ccc(OCCCO)cc2)O[C@H]1c1ccccc1N=[N+]=[N-] endpoint_result=-3.44

# context switch: different compound, same z-score
State its z-score for this compound: O=C(NCC(O)CO)[C@]1(Cc2ccccc2)N=C(c2ccc(OCCCO)cc2)O[C@@H]1c1ccccc1 (some centres not stated)
1.71
